Each entry below carries its recorded viability, T/C.
Tested on: 425362-245-T-J1 tumor spheroids, viability % test/control;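 further: spheroids exposed to agents for 7 days; 100% = DMSO vehicle control viability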
procedure text: Anticancer human tumor 425362-245-T-J1 patient-derived melanoma cell line growth inhibition
test context: second compound 0.000949 µM; first compound 1 µM; active compounds read low; spheroids with HUVEC and MSC
All answers are understood in %, so give the number only.

>  <molecule>
COc1ccc([C@@H](O)c2cc(-c3ncnc4cc(N5CCOCC5)ccc34)c(F)cc2Cl)nn1 + COc1cc2c(cc1O)CCNC21CSC2c3c(OC(C)=O)c(C)c4c(c3C(COC1=O)N1C(O)C3Cc5cc(C)c(OC)c(O)c5C(C21)N3C)OCO4

>  <value measured>
0.08

$$$$

Turning now to a further record.
Tell us which viability, T/C value is on record for Cc1cc(C)c(CNC(=O)c2cc(-c3ccc(CN4CCOCC4)cc3)cc3c2cnn3C2CCCC2)c(=O)[nH]1 + COc1cc2c(cc1O)CCNC21CSC2c3c(OC(C)=O)c(C)c4c(c3C(COC1=O)N1C(O)C3Cc5cc(C)c(OC)c(O)c5C(C21)N3C)OCO4
0.33
